B1: HDV Ribozyme (parent)
chain: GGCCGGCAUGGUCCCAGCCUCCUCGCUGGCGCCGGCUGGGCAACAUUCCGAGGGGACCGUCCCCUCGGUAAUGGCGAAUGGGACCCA

# Variants of: B1
# assay overview: self-cleavage, relative activity (ratio to wild type); higher = more cleavage; co-transcriptional
metric name: self-cleavage
Write the number on its own, no unit after it.

# annotated cases, reported self-cleavage shown
# variant annotation, self-cleavage
data = [
    ("C26A G39A", 0.234),
    ("G34A C57G", 0.0997),
    ("U9C C32U", 0.862),
    ("C4A G28U", 0.0692),
    ("G81U C85U", 0.31),
]

So what's the measured self-cleavage for this one? G39C G73A
0.0339

Consider next the variant U47G A71C in the same way.
0.959

Consider next the variant C7U A83G in the same way.
0.475

Consider next the variant C33A A43U in the same way.
0.163

Consider next the variant G11A C15G in the same way.
0.138

Consider next the variant C19U G38C in the same way.
0.0875

Consider next the variant G29C A87U in the same way.
0.0378

Consider next the variant G10U C26G in the same way.
0.677

Consider next the variant G10C G53A in the same way.
0.95

Consider next the variant C22G C66G in the same way.
0.0845
